assay: UGTs/CYPs dual-activity mouse liver microsomal stability
Type: in vitro ADME
conditionNotes: 0.25 h; 5 μM; NADPH + UDP-GlcUA; 0.5 mg mL–1 microsomes
Classify: criterion met when UGTs/CYPs dual-activity mouse liver microsomal stability is strictly less than 20%; criterion not met when UGTs/CYPs dual-activity mouse liver microsomal stability is not.

compound	assignedCategory
O=C(Nc1ccc2c(c1)CCN2Cc1ccc(F)cc1)NC12C[C@H]3C[C@@H](C1)C[C@@H](C2)C3 [Compound 6]	criterion not met

# TODO verify UGTs/CYPs dual-activity mouse liver microsomal stability < 20% strictly for this compound: O=C(NCC12C[C@H]3C[C@@H](C1)C[C@@H](C2)C3)Nc1ccc2c(ccn2Cc2ccc(F)cc2)c1 [Compound 27]
criterion met

O=C(NCC12C[C@H]3C[C@@H](C1)C[C@@H](C2)C3)Nc1ccc2c(ccn2CCc2ccc(F)cc2)c1 [Compound 30] ?
criterion met

CC(C)c1ccc(Cn2ccc3cc(NC(=O)NCC45C[C@H]6C[C@@H](C4)C[C@@H](C5)C6)ccc32)cc1 [Compound 28] ?
criterion not met

* * *

Give mouse plasma stability for every item shown.
assay: Mouse plasma stability
Assay type: in vitro ADME
conditionNotes: 2.0 h; 37 °C; 5 μM
Numbers only, in %.

Recorded results for 4 compounds are shown here.
chemSmiles	unitsOfMeasure	mouse plasma stability
O=C(Nc1ccc2c(c1)CCN2Cc1ccc(F)cc1)NC12C[C@H]3C[C@@H](C1)C[C@@H](C2)C3	%	100.7
O=C(NCC12C[C@H]3C[C@@H](C1)C[C@@H](C2)C3)Nc1ccc2c(ccn2CCc2ccc(F)cc2)c1	%	97.0
O=C(NCC12C[C@H]3C[C@@H](C1)C[C@@H](C2)C3)Nc1ccc2c(ccn2Cc2ccc(F)cc2)c1	%	102.2
O=C(NCC12C[C@H]3C[C@@H](C1)C[C@@H](C2)C3)Nc1ccc2c(ccn2C(=O)c2ccc(F)cc2)c1	%	96.2

Quick one: mouse plasma stability of CC(C)c1ccc(Cn2ccc3cc(NC(=O)NCC45C[C@H]6C[C@@H](C4)C[C@@H](C5)C6)ccc32)cc1 ?
101.3

* * *

systemTested: UniProt:P09917
assay: Cell-free 5-LOX activity assay
Format: biochemical
Set-up: made in house; host or cells: Escherichia coli Bl21 (DE3)
conditionNotes: human isolated 5-LOX
pIC50: −log10 of the molar value.
measuredQuantity: pIC50

Recorded results for 3 compounds are shown here.
compound	systemTested	pIC50
O=C(NCC12C[C@H]3C[C@@H](C1)C[C@@H](C2)C3)Nc1ccc2c(ccn2C(=O)c2ccc(F)cc2)c1 [Compound 36]	UniProt:P09917	< 6.00
O=C(NCC12C[C@H]3C[C@@H](C1)C[C@@H](C2)C3)Nc1ccc2c(c1)CCN2Cc1ccc(C(=O)O)cc1 [Compound 14]	UniProt:P09917	< 6.00
O=C(NCC12C[C@H]3C[C@@H](C1)C[C@@H](C2)C3)Nc1ccc2c(c1)c1ccccc1n2Cc1ccc(F)cc1 [Compound 48]	UniProt:P09917	< 6.00

Let us examine a further case.
Quick one: pIC50 of O=C(Nc1ccc2c(c1)CCN2Cc1ccc(F)cc1)C12C[C@H]3C[C@@H](C1)C[C@@H](C2)C3 [Compound 3] ?
7.13

* * *

systemTested: 5-LOX (Homo sapiens)
Sequence (P09917 1-674): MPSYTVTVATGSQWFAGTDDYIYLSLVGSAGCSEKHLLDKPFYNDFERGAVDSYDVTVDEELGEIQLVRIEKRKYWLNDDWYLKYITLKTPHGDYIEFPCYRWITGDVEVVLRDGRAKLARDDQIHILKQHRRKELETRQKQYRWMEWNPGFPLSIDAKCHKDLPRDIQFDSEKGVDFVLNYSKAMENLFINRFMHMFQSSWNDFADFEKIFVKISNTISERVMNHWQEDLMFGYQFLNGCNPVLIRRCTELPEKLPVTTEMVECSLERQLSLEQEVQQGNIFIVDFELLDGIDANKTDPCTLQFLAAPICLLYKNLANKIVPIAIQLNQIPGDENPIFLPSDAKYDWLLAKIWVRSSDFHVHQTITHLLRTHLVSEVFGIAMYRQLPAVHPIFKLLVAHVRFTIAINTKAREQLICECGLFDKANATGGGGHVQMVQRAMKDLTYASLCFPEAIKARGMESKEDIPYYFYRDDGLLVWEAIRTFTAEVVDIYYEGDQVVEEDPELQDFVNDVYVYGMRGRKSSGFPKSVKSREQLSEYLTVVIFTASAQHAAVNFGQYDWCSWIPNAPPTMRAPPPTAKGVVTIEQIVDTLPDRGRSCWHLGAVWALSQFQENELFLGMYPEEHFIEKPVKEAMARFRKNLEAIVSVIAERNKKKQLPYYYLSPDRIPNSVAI
assay: 5-LOX product formation in human activated PMNL (A23187)
Format: cell-based
Set-up: Freshly isolated PMNL (5 × 10^6) suspended in PBS pH 7.4 with 1 mg/mL glucose were preincubated with the test compounds; endogenous in cells; host or cells: human PMNL from donor blood; dose or concentration left out as unconfirmed
conditionNotes: PMNL; read-out: 5-LO residual activity in PMNL (%)
measuredQuantity: remaining activity (%)
One number for each entry, in %.

Recorded results for 3 compounds are shown here.
compound	measuredQuantity	experimentalValue
CN1CCCN(CCNC(=O)Nc2ccc3c(c2)CCN3Cc2ccc(F)cc2)CC1 [Compound 8]	remaining activity	71.1
O=C(NCC12C[C@H]3C[C@@H](C1)C[C@@H](C2)C3)Nc1ccc2c(ccn2CCc2ccc(F)cc2)c1 [Compound 30]	remaining activity	65.1
O=C(O)CCCn1ccc2cc(NC(=O)NCC34C[C@H]5C[C@@H](C3)C[C@@H](C4)C5)ccc21 [Compound 38]	remaining activity	41.2

Let us examine a further case.
Quick one: remaining activity of O=C(Nc1ccc2c(c1)CCN2Cc1ccc(F)cc1)NC12C[C@H]3C[C@@H](C1)C[C@@H](C2)C3 [Compound 6] ?
35.4
